# assayTarget: T1, P6-AA-1HGe-H
# T1 chain: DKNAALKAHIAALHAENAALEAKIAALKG
# assayProtocol: two-hybrid library CCmax;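 also: natural log of median RNA to DNA barcode read ratio; higher means stronger binding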
# conditions: mean of both orientations
parameterMeasured: interaction score

binder: DENAALEARIAALRAKNAALKAEIAALEG [P5-AA-1HGe-R]
measured: 1.64
//
binder: DENAALEAMIAALMAKNAALKAEIAALEG [P5-AA-1HGe-M]
measured: 2.03
//
binder: DENAALEAWIAALWAKNAALKAEIAALEG [P5-AA-1HGe-W]
measured: 1.34
//
binder: DENAALEAAIAALAAKNAALKAEIAALEG [P5-AA-1HGe-A]
measured: 1.73

Entry source: paper PMC10397247
